Test system: HGF-induced EMT in NBT-II cells
Assay: EMT spot migration assay, HGF-induced
Assay type: cell-based
Settings: HGF-induced EMT (4 ng/ml HGF), CDR dose response from 6.67 μM, read-out: Cell Dispersion IC 50, HGF
Method: NBT-II cells were stably transfected with mcherry-fluorescent H2B and maintained in DMEM supplemented with 10% fetal bovine serum (FBS, Thermo Scientific), 1 μg/ml puromycin (Sigma) and 100 units/ml penicillin-streptomycin (1× pen-strep, Invitrogen). Cells were grown to 80% confluency in tissue culture flasks prior to plating. Cells were trypsinized and concentrated to a density of 5×10^6 cell/ml in CO2-independent medium (Invitrogen) supplemented with 10% FBS. […]
pIC50: −log10 of the molar value.
I would appreciate it if you labelled entries Condition met when pIC50 is 6 or higher, otherwise Condition not met.

COc1cc2ncnc(Nc3cccc(Br)c3)c2cc1OC :: Condition not met
Cc1cccc(-c2nn(C(=S)Nc3ccccc3)cc2-c2ccnc3ccccc23)n1 :: Condition met
COc1ccc2c(c1OC)N=C(NC(=O)c1cccnc1)N1CCN=C21 :: Condition met
Cc1ccc(-c2nn(C(C)(C)C)c3ncnc(N)c23)cc1 :: Condition not met
CNc1cc2c(Nc3cccc(Br)c3)ncnc2cn1 :: Condition not met

Evaluate CN1CCN(CCOc2cc(OC3CCOCC3)c3c(Nc4c(Cl)ccc5c4OCO5)ncnc3c2)CC1 : pIC50 at minimum 6?
Condition met

API: above_or_equal(metric=pIC50, cutoff=6) for item CS(=O)(=O)CCNCc1ccc(-c2ccc3ncnc(Nc4ccc(OCc5cccc(F)c5)c(Cl)c4)c3c2)o1
Condition not met

Answer whether pIC50 of O=C(NOC[C@H](O)CO)c1ccc(F)c(F)c1Nc1ccc(I)cc1F is greater than or equal to 6.
Condition met

Record COc1cc2ncnc(Nc3ccc(O)c(Br)c3)c2cc1OC ; criterion: pIC50 no lower than 6. Met?
Condition not met

Decide: pIC50 of COc1cc2ncnc(Nc3cccc(Cl)c3)c2cc1OC >= 6?
Condition not met

I'd appreciate it if you could say whether Cc1cc(N2CCOCC2)cc2[nH]c(-c3c(NC[C@@H](O)c4cccc(Cl)c4)cc[nH]c3=O)nc12 has pIC50 at least equal to 6.
Condition not met

Hi team, for Cn1cc(-c2ccc3nnc(C(F)(F)c4ccc5ncccc5c4)n3n2)cn1 , is the recorded pIC50 at or above 6?
Condition met

Reported pIC50 at or above 6? OCCn1cc(-c2cnc3nnn(Cc4ccc5ncccc5c4)c3n2)cn1
Condition met

# bool: pIC50 of C#Cc1cccc(Nc2ncnc3cc(OCCOC)c(OCCOC)cc23)c1 >= 6
Condition not met

Check this compound for pIC50 at or above 6: FC(F)c1nc2ccccc2n1-c1nc(N2CCOCC2)nc(N2CCOCC2)n1
Condition met

State whether the measured pIC50 reaches 6, counting equality as reaching it, for CS(=O)(=O)N1CCN(Cc2cc3nc(-c4cccc5[nH]ncc45)nc(N4CCOCC4)c3s2)CC1
Condition met

Please tell me: is the compound Fc1ccc(Cl)cc1-c1nc(Nc2ccncc2)c2nccnc2n1 at or over 6 in terms of pIC50?
Condition met

Identify whether the reported pIC50 of the following compound is 6 or greater: c1ccc(-c2[nH]ncc2-c2ccnc3ccccc23)nc1
Condition met

Given Oc1cccc(-c2nc(N3CCOCC3)c3oc4ncccc4c3n2)c1 , state whether its pIC50 is at least 6.
Condition met
